Assay: Compound A pharmacokinetics after oral administration of a single dose with and without ritonavir, human subjects, fed
Type: in vivo
Conditions: plasma, po, 100 mg, single oral dose 100 mg, without ritonavir, geometric mean
measured.endpoint: Cmax (ng/mL)
Reply numerically in ng/mL, unit not repeated.

IN: Name the reported Cmax value associated with the molecule `C=CCNC(=O)[C@H]1N(C(=O)[C@@H](O)[C@H](Cc2ccccc2)NC(=O)c2cccc(O)c2C)CSC1(C)C`
OUT: 160

* * *

Assay: Compound A pharmacokinetics after oral administration of a single dose with and without ritonavir, human subjects, fed
Assay type: in vivo
Details: plasma, po, 3000 mg, single oral dose 3000 mg, without ritonavir, median
measured.endpoint: Tmax (h)
Reply numerically in h, unit not repeated.

IN: Name the reported Tmax value associated with the compound C=CCNC(=O)[C@H]1N(C(=O)[C@@H](O)[C@H](Cc2ccccc2)NC(=O)c2cccc(O)c2C)CSC1(C)C [Compound A]
OUT: 4

* * *

Assay: Compound A pharmacokinetics after oral administration of a single dose with and without ritonavir, human subjects, fed
Type: in vivo
Conditions: plasma, po, 100 mg, single oral dose 100 mg, without ritonavir, geometric mean, read-out: AUC (area under the concentration-time curve from time 0 to infinity)
Description: Nos. 11/008325, filed Dec. 8, 2004, and 60/591,351, filed Jul. 26, 2004, all of which are hereby incorporated by reference for this purpose. […] The mean to t1/2 value for the 100 mg dose group was calculated from three subjects. […]
measured.endpoint: AUC
Report the figure along with its unit, number first.

IN: Name the reported AUC value associated with the compound `C=CCNC(=O)[C@H]1N(C(=O)[C@@H](O)[C@H](Cc2ccccc2)NC(=O)c2cccc(O)c2C)CSC1(C)C`
OUT: 740 ng·h/mL

* * *

Experiment: Compound A pharmacokinetics after oral administration of a single dose with and without ritonavir, human subjects, fed
Assay type: in vivo
Conditions: plasma, po, 1500 mg, single oral dose 1500 mg, without ritonavir, arithmetic mean, read-out: t½ (terminal phase plasma half-life) (converted)
Procedure: Nos. 11/008325, filed Dec. 8, 2004, and 60/591,351, filed Jul. 26, 2004, all of which are hereby incorporated by reference for this purpose. […] The mean to t1/2 value for the 100 mg dose group was calculated from three subjects. […]
measured.endpoint: half-life (h)
Reply numerically in h, unit not repeated.

IN: Name the reported half-life value associated with the compound C=CCNC(=O)[C@H]1N(C(=O)[C@@H](O)[C@H](Cc2ccccc2)NC(=O)c2cccc(O)c2C)CSC1(C)C [Compound A]
OUT: 9.17

* * *

Experiment: Compound A pharmacokinetics after oral administration of a single dose with and without ritonavir, human subjects, fed
Assay type: in vivo
Details: plasma, single oral dose 400 mg + ritonavir (100 mg every 12 hours for 3 doses), geometric mean, read-out: AUC (area under the concentration-time curve from time 0 to infinity)
measured.endpoint: AUC (µg·h/mL)
Reply numerically in µg·h/mL, unit not repeated.

IN: Name the reported AUC value associated with the molecule `C=CCNC(=O)[C@H]1N(C(=O)[C@@H](O)[C@H](Cc2ccccc2)NC(=O)c2cccc(O)c2C)CSC1(C)C`
OUT: 42.5

* * *

Test: Compound B pharmacokinetics after oral administration of a single dose alone (fasting) and with ritonavir (fed), human subjects
Format: in vivo
Details: plasma, po, 1800 mg, single oral dose 1800 mg (active dose 1620 mg), alone, fasting, arithmetic mean, read-out: t1/2 (terminal phase plasma half-life) (converted)
measured.endpoint: half-life (h)
Reply numerically in h, unit not repeated.

IN: Name the reported half-life value associated with the compound Cc1c(O)cccc1C(=O)N[C@@H](Cc1ccccc1)[C@H](O)C(=O)N1CC(F)(F)C(C)(C)[C@H]1C(=O)NCC(F)(F)F [Compound B]
OUT: 3.6

* * *

Assay: Compound B pharmacokinetics after oral administration of a single dose alone (fasting) and with ritonavir (fed), human subjects
Type: in vivo
Conditions: plasma, po, 1800 mg, single oral dose 1800 mg (active dose 1620 mg), alone, fasting, geometric mean
measured.endpoint: Cmax

IN: Name the reported Cmax value associated with the molecule `Cc1c(O)cccc1C(=O)N[C@@H](Cc1ccccc1)[C@H](O)C(=O)N1CC(F)(F)C(C)(C)[C@H]1C(=O)NCC(F)(F)F`
OUT: 8670 ng/mL

* * *

Assay: Compound A pharmacokinetics after oral administration of a single dose with and without ritonavir, human subjects, fed
Format: in vivo
Conditions: plasma, po, 300 mg, single oral dose 300 mg, without ritonavir, geometric mean, read-out: AUC (area under the concentration-time curve from time 0 to infinity)
measured.endpoint: AUC (ng·h/mL)
Reply numerically in ng·h/mL, unit not repeated.

IN: Name the reported AUC value associated with the molecule `C=CCNC(=O)[C@H]1N(C(=O)[C@@H](O)[C@H](Cc2ccccc2)NC(=O)c2cccc(O)c2C)CSC1(C)C`
OUT: 3560

* * *

Test: Compound A pharmacokinetics after oral administration of a single dose with and without ritonavir, human subjects, fed
Format: in vivo
Settings: plasma, po, single oral dose 400 mg + ritonavir (100 mg every 12 hours for 3 doses), median
measured.endpoint: Tmax (h)
Reply numerically in h, unit not repeated.

IN: Name the reported Tmax value associated with the compound C=CCNC(=O)[C@H]1N(C(=O)[C@@H](O)[C@H](Cc2ccccc2)NC(=O)c2cccc(O)c2C)CSC1(C)C [Compound A]
OUT: 3.51

* * *

Experiment: Compound B pharmacokinetics after oral administration of a single dose alone (fasting) and with ritonavir (fed), human subjects
Assay type: in vivo
Details: plasma, po, single oral dose 450 mg (active 405 mg) + ritonavir (100 mg every 12 hours for 3 doses), fed, median
measured.endpoint: Tmax

IN: Name the reported Tmax value associated with the compound `Cc1c(O)cccc1C(=O)N[C@@H](Cc1ccccc1)[C@H](O)C(=O)N1CC(F)(F)C(C)(C)[C@H]1C(=O)NCC(F)(F)F`
OUT: 4.02 h

* * *

Test: Compound B pharmacokinetics after oral administration of a single dose alone (fasting) and with ritonavir (fed), human subjects
Format: in vivo
Details: plasma, po, 3600 mg, single oral dose 3600 mg (active dose 3240 mg), alone, fasting, arithmetic mean, read-out: t1/2 (terminal phase plasma half-life) (converted)
measured.endpoint: half-life (h)
Reply numerically in h, unit not repeated.

IN: Name the reported half-life value associated with the molecule `Cc1c(O)cccc1C(=O)N[C@@H](Cc1ccccc1)[C@H](O)C(=O)N1CC(F)(F)C(C)(C)[C@H]1C(=O)NCC(F)(F)F`
OUT: 4.15

* * *

Assay: Compound A pharmacokinetics after oral administration of a single dose with and without ritonavir, human subjects, fed
Type: in vivo
Conditions: plasma, po, 2000 mg, single oral dose 2000 mg, without ritonavir, geometric mean, read-out: AUC (area under the concentration-time curve from time 0 to infinity)
measured.endpoint: AUC (ng·h/mL)
Reply numerically in ng·h/mL, unit not repeated.

IN: Name the reported AUC value associated with the molecule `C=CCNC(=O)[C@H]1N(C(=O)[C@@H](O)[C@H](Cc2ccccc2)NC(=O)c2cccc(O)c2C)CSC1(C)C`
OUT: 44200

* * *

Experiment: Compound B pharmacokinetics after oral administration of a single dose alone (fasting) and with ritonavir (fed), human subjects
Format: in vivo
Settings: plasma, po, single oral dose 300 mg (active 270 mg) + ritonavir (100 mg every 12 hours for 3 doses), fed, arithmetic mean, read-out: t1/2 (terminal phase plasma half-life) (converted)
measured.endpoint: half-life (h)
Reply numerically in h, unit not repeated.

IN: Name the reported half-life value associated with the compound `Cc1c(O)cccc1C(=O)N[C@@H](Cc1ccccc1)[C@H](O)C(=O)N1CC(F)(F)C(C)(C)[C@H]1C(=O)NCC(F)(F)F`
OUT: 8.54

* * *

Assay: Compound B pharmacokinetics after oral administration of a single dose alone (fasting) and with ritonavir (fed), human subjects
Format: in vivo
Conditions: plasma, po, 300 mg, single oral dose 300 mg (active dose 270 mg), alone, fasting, geometric mean, read-out: AUC (area under the concentration-time curve from time 0 to infinity)
Description: Nos. 11/008325, filed Dec. 8, 2004, and 60/591,351, filed Jul. 26, 2004, all of which are hereby incorporated by reference for this purpose. A total of 21 human subjects were administered a single 300 mg, 900 mg, 1800 mg, or 3600 mg dose of a spray-dried composition comprising 90 wt % amorphous Compound B and 10 wt % hydroxypropyl methyl cellulose acetate succinate (HPMCAS) under fasting conditions. […]
measured.endpoint: AUC

IN: Name the reported AUC value associated with the compound `Cc1c(O)cccc1C(=O)N[C@@H](Cc1ccccc1)[C@H](O)C(=O)N1CC(F)(F)C(C)(C)[C@H]1C(=O)NCC(F)(F)F`
OUT: 6110 ng·h/mL

* * *

Assay: Compound A pharmacokinetics after oral administration of a single dose with and without ritonavir, human subjects, fed
Format: in vivo
Conditions: plasma, po, 100 mg, single oral dose 100 mg, without ritonavir, median
measured.endpoint: Tmax
Report the figure along with its unit, number first.

IN: Name the reported Tmax value associated with the compound `C=CCNC(=O)[C@H]1N(C(=O)[C@@H](O)[C@H](Cc2ccccc2)NC(=O)c2cccc(O)c2C)CSC1(C)C`
OUT: 3 h

# credit: patent US20050171037A1
